Test system: HEK-293T
assay_name: Multiplex assay against HEK293T
Assay type: toxicity, cell-based
cond: human, 24 h, 1 µM, compound concentration 1 uM, replicate 1
reported_metric: Population Pyknosed Nuclei (%)
One number for each entry, in %.

// known answers, use as guide
CNC(=O)c1nn(C)c2c1C(C)(C)Cc1cnc(Nc3ccc(N4CCN(C)CC4)cc3)nc1-2    45
CN(C)C/C=C/C(=O)Nc1cc2c(Nc3ccc(F)c(Cl)c3)ncnc2cc1O[C@H]1CCOC1.O=C(O)/C=C\C(=O)O.O=C(O)/C=C\C(=O)O [AFATINIB DIMALEATE]    11
COc1cc(N2CCC(N(C)C)CC2)ccc1Nc1ncc(Cl)c(Nc2ccccc2P(C)(C)=O)n1    12
CCn1c(-c2nonc2N)nc2cnc(Oc3cccc(NC(=O)c4ccc(OCCN5CCOCC5)cc4)c3)cc21 [GSK-269962A]    51
COc1ccc(NS(=O)(=O)c2sc3ccc(Cl)cc3c2C)cc1N1CCNCC1.Cl    38
CNc1oc(-c2cccc3ccccc23)nc1C#N    17
CCCn1c(=O)c2[nH]c(C34CC5CC(CC3C5)C4)nc2n(CCC)c1=O    53
CCOc1cc2ncc(C#N)c(Nc3ccc(OCc4cccc(F)c4)c(Cl)c3)c2cc1NC(=O)/C=C/CN(C)C    11

Query molecule follows.
Record CC(C)N1CCC(C)(C)c2cc(C#Cc3ccc(C(=O)O)cc3)ccc21 . Reported Population Pyknosed Nuclei (%): 41

----------
System: Fibroblast
assay_name: Multiplex assay against human fibroblast
Type: toxicity, cell-based
cond: 24 h, 10 µM, compound concentration 10 uM, replicate 2
Provide the reported Total Cell Count of each item.
Answers are plain numbers.

N#Cc1cnc(Nc2cc(NC[C@H]3CNCCO3)c(C(F)(F)F)cn2)cn1    68
CN(C)CCOc1ccc(-c2nc(-c3ccncc3)c(-c3ccc4c(c3)CC/C4=N\O)[nH]2)cc1    122
CC(C)N1CCC(C)(C)c2cc(C#Cc3ccc(C(=O)O)cc3)ccc21    352
Cl.Cl.Nc1ncnc2c1c(-c1cccc(OCc3ccccc3)c1)cn2[C@H]1C[C@@H](CN2CCC2)C1    104
CN(C)C/C=C/C(=O)Nc1cc2c(Nc3ccc(F)c(Cl)c3)ncnc2cc1O[C@H]1CCOC1.O=C(O)/C=C\C(=O)O.O=C(O)/C=C\C(=O)O [AFATINIB DIMALEATE]    98
CCn1c(-c2nonc2N)nc2cnc(Oc3cccc(NC(=O)c4ccc(OCCN5CCOCC5)cc4)c3)cc21 [GSK-269962A]    73
Nc1ccc(C(=O)Nc2cccc(-c3nc(N4CCOCC4)c4oc5ncccc5c4n3)c2)cn1    80
CCOc1cc2ncc(C#N)c(Nc3ccc(OCc4cccc(F)c4)c(Cl)c3)c2cc1NC(=O)/C=C/CN(C)C    193

For each of the items listed, what is its Total Cell Count?
1. CNC(=O)c1cc(Oc2ccc(NC(=O)Nc3cc(C(C)(C)C)nn3-c3ccc4ncccc4c3)c(F)c2)ccn1
2. CC(=O)c1cc(-c2cc(C(=O)NC3CC3)ccc2C)c2ncccn12
3. CCCn1c(=O)c2[nH]c(C34CC5CC(CC3C5)C4)nc2n(CCC)c1=O
4. CCOc1cc(N2CCC(O)CC2)ccc1Nc1ncc2c(n1)N(C1CCCC1)CCC(=O)N2C

1: 60; 2: 62; 3: 120; 4: 75
